test: Plasma sildenafil levels in healthy volunteers; format: in vivo; conditions: human, po, 100 mg, Free plasma sildenafil concentration, 100 mg oral, 75 minutes after dose
RECORDED_ENDPOINT: concentration at 75 min (µM)

CCCc1nn(C)c2c(=O)[nH]c(-c3cc(S(=O)(=O)N4CCN(C)CC4)ccc3OCC)nc12
0.044

---

assay: Plasma sildenafil levels in healthy volunteers; format: in vivo; settings: human, po, 100 mg, 100 mg oral, subjects excluded from analysis, read-out: plasma concentration, mean of four subjects with very low levels
RECORDED_ENDPOINT: concentration at 75 min (nM)

CCCc1nn(C)c2c(=O)[nH]c(-c3cc(S(=O)(=O)N4CCN(C)CC4)ccc3OCC)nc12
3.6
